- experimental-details: Cytotoxicity in human CEM.SS T cells assessed as cell viability level at 2 uM
- Format: toxicity, cell-based
- reported-conditions: time 7 day, read-out: Activity
parameter-measured: viability at 168 h, 2 µM

Inquiry: viability at 168 h, 2 µM lookup needed for CC(C)N(CCCNC(=O)Nc1ccc(C(C)(C)C)cc1)C[C@H]1O[C@@H](n2cc(Br)c3c(N)ncnc32)[C@H](O)[C@@H]1O , thanks.
Reply text: > 80%

---

- experimental-details: Cytotoxicity in human CEM.SS T cells assessed as cell viability level at 1 uM
- Assay type: toxicity, cell-based
- reported-conditions: time 7 day, read-out: Activity
parameter-measured: viability at 168 h, 1 µM

Inquiry: viability at 168 h, 1 µM lookup needed for COc1cc2c(NC3CCN(C(C)C)CC3)nc(C3CCCCC3)nc2cc1OCCCN1CCCC1 , thanks.
Reply text: > 80%

---

- experimental-details: Cytotoxicity in human CEM.SS T cells assessed as cell viability level at 1 nM
- Format: toxicity, cell-based
- reported-conditions: time 7 day, read-out: Activity
parameter-measured: viability at 168 h, 0.001 µM

Inquiry: viability at 168 h, 0.001 µM lookup needed for CC(/C=C/C(=O)NO)=C\[C@@H](C)C(=O)c1ccc(N(C)C)cc1 , thanks.
Reply text: > 80%

---

- experimental-details: Cytotoxicity in human CEM.SS T cells assessed as cell viability level at 200 nM
- Assay type: toxicity, cell-based
- reported-conditions: time 7 day, read-out: Activity
parameter-measured: viability at 168 h, 0.2 µM

Inquiry: viability at 168 h, 0.2 µM lookup needed for O=C(CCCCCCC(=O)Nc1ccccc1)NO , thanks.
Reply text: > 80%

---

- experimental-details: Cytotoxicity in human CEM.SS T cells assessed as cell viability level at 3 uM
- Format: toxicity, cell-based
- reported-conditions: time 7 day, read-out: Activity
parameter-measured: viability at 168 h, 3 µM

Inquiry: viability at 168 h, 3 µM lookup needed for CC1=NN(c2ccc(C(=O)O)cc2)C(=O)/C1=C\c1ccc(-c2cc(C)c(C)cc2[N+](=O)[O-])o1 , thanks.
Reply text: > 80%
